assay: Cytotoxicity against human MT4 cells after 96 hrs by MTT method; format: cell-based
For each record, write down the corresponding CC50 at 96 h.
Give bare numbers, in µM.

CC(=O)c1ccc(N2CCN(Cc3c(O)ccc4c(C)cc(=O)oc34)CC2)cc1: 59
Cc1cc(=O)oc2c(CN3CCN(C/C=C/c4ccccc4)CC3)c(O)ccc12: 28

Give me CC50 at 96 h for each of these molecules, listed below.
1. CCN(CC)c1oc2cc(OC)ccc2c(=O)c1Cc1c(OC(C)=O)ccc2ccc(=O)oc12
2. CCC(=O)Oc1ccc2c(C)cc(=O)oc2c1Cc1c(C)[nH]c2ccccc12

1. 83
2. 31

====

experiment: Cytotoxicity against human MT4 cells after 96 hrs by MTT method; type: cell-based
Field: label. Allowed values: 1 (CC50 at 96 h < 30 µM) or 0 (CC50 at 96 h >= 30 µM).

In the record for CCOC(=O)N1CCN(Cc2c(OC(=O)c3ccccc3)ccc3ccc(=O)oc23)CC1 , is CC50 at 96 h less than 30 µM?
0

In the record for Cc1[nH]c2ccccc2c1Cc1c(OC(=O)CCCC(=O)O)ccc2ccc(=O)oc12 , is CC50 at 96 h less than 30 µM?
1

In the record for CC(=O)c1ccc(N2CCN(Cc3c(O)ccc4ccc(=O)oc34)CC2)cc1 , is CC50 at 96 h less than 30 µM?
1

In the record for COCCN(CCOC)c1oc2cc(OC)ccc2c(=O)c1Cc1c(OC(C)=O)ccc2c(C)cc(=O)oc12 , is CC50 at 96 h less than 30 µM?
0

In the record for Cc1cc(=O)oc2c(CN(C)CC(=O)O)c(O)ccc12 , is CC50 at 96 h less than 30 µM?
0

In the record for COCCN(CCOC)c1oc2ccc3ccccc3c2c(=O)c1Cc1c(OC(C)=O)ccc2c(C)cc(=O)oc12 , is CC50 at 96 h less than 30 µM?
0

In the record for CC(=O)Oc1ccc2ccc(=O)oc2c1Cc1c(N2CCCCC2)oc2ccc3ccccc3c2c1=O , is CC50 at 96 h less than 30 µM?
0

====

test: Cytotoxicity against human MT4 cells after 96 hrs by MTT method; format: cell-based
value_kind: CC50 at 96 h (µM)
Numbers only, in µM.

CCC(=O)Oc1[nH]c2ccccc2c1Cc1c(OC(C)=O)ccc2ccc(=O)oc12: 67

Now consider a different compound.
Look up CC50 at 96 h: COc1ccc2c(=O)c(Cc3c(OC(C)=O)ccc4ccc(=O)oc34)c(N(C)C)oc2c1
26

====

For each record, write down the corresponding CC50 at 96 h.
assay: Cytotoxicity against human MT4 cells after 96 hrs by MTT method; type: cell-based

Give me CC50 at 96 h for each of these compounds, listed below.
1. CCN(CC)c1oc2ccc3ccccc3c2c(=O)c1Cc1c(OC(C)=O)ccc2ccc(=O)oc12
2. CC(=O)Oc1ccc2c(C)cc(=O)oc2c1Cc1c(C)n(C)c2ccccc12
3. COc1ccc2c(=O)c(Cc3c(O)ccc4ccc(=O)oc34)c(N3CCCC3)oc2c1
4. CCN(CC)c1oc2cc(OC(C)=O)ccc2c(=O)c1Cc1c(OC(C)=O)ccc2c(C)cc(=O)oc12

["> 100 µM", "24 µM", "> 100 µM", "44 µM"]

Give me CC50 at 96 h for each of these compounds, listed below.
1. Cc1[nH]c2ccccc2c1Cc1c(OC(=O)CCCC(=O)O)ccc2c(C)cc(=O)oc12
2. CCCOc1ccc2c(C)cc(=O)oc2c1CN1CCN(c2ccc(C(C)=O)cc2)CC1
3. O=c1ccc2ccc(O)c(CN3CCN(C/C=C/c4ccccc4)CC3)c2o1
4. CCOC(=O)N1CCN(Cc2c(O)ccc3c(C)cc(=O)oc23)CC1
5. CCCOc1ccc2c(C)cc(=O)oc2c1CN1CCCCC1
6. COCCN(CCOC)c1oc2ccc3ccccc3c2c(=O)c1Cc1c(OC(C)=O)ccc2ccc(=O)oc12
7. CC(=O)Oc1ccc2ccc(=O)oc2c1Cc1c(-c2ccccc2)[nH]c2ccccc12
8. Cc1cc(=O)oc2c(CN3CCN(C)CC3)c(O)ccc12

1: 29 µM; 2: 25 µM; 3: 5 µM; 4: > 100 µM; 5: > 100 µM; 6: > 100 µM; 7: > 100 µM; 8: > 100 µM

Give me CC50 at 96 h for each of these compounds, listed below.
1. CCCCCCCCOc1ccc2c(=O)c(Cc3c(OC(C)=O)ccc4c(C)cc(=O)oc34)c(N(CC)CC)oc2c1
2. Cc1cc(=O)oc2c(CN3CCN(Cc4ccc5c(c4)OCO5)CC3)c(O)ccc12
3. Cc1cc(=O)oc2c(CN3CCOCC3)c(O)ccc12
4. O=c1ccc2ccc(O)c(CN3CCCCC3)c2o1
5. CCCOc1ccc2c(C)cc(=O)oc2c1CN1CCN(C/C=C/c2ccccc2)CC1
6. CCN(CC)c1oc2cc(OC)ccc2c(=O)c1Cc1c(O)ccc2c(C)cc(=O)oc12
7. COc1ccc2[nH]cc(Cc3c(OC(C)=O)ccc4c(C)cc(=O)oc34)c2c1
8. CCCOc1ccc2c(C)cc(=O)oc2c1CN1CCc2ccccc2C1

> 100 µM
72 µM
> 100 µM
> 100 µM
> 100 µM
> 100 µM
72 µM
> 100 µM

Look up CC50 at 96 h: O=C(Oc1ccc2ccc(=O)oc2c1CN1CCN(Cc2ccc3c(c2)OCO3)CC1)c1ccccc1
74 µM

====

assay: Cytotoxicity against human MT4 cells after 96 hrs by MTT method; format: cell-based
Field: label. Allowed values: yes (CC50 at 96 h < 60 µM) or no (CC50 at 96 h >= 60 µM).

Example cases with answers are listed next.
O=c1cnn([C@@H]2O[C@H](CO)[C@@H](O)[C@H]2O)c(=O)[nH]1 [6-AZAURIDINE]: yes
Cc1cc(=O)oc2c(CN3CCCCC3)c(O)ccc12: no
CC(=O)Oc1ccc2ccc(=O)oc2c1Cc1c(N(C)C)oc2ccc3ccccc3c2c1=O: no

In the record for CCC(=O)Oc1ccc2ccc(=O)oc2c1Cc1c(C)[nH]c2ccccc12 , is CC50 at 96 h less than 60 µM?
no

In the record for CCCOc1ccc2c(C)cc(=O)oc2c1CN1CCOCC1 , is CC50 at 96 h less than 60 µM?
no

In the record for CC(=O)Oc1ccc2c(C)cc(=O)oc2c1Cc1c(N(C)C)oc2ccc3ccccc3c2c1=O , is CC50 at 96 h less than 60 µM?
no

In the record for CCCOc1ccc2ccc(=O)oc2c1CN1CCc2ccccc2C1 , is CC50 at 96 h less than 60 µM?
yes

In the record for CC(=O)Oc1ccc2ccc(=O)oc2c1Cc1c(C)[nH]c2ccccc12 , is CC50 at 96 h less than 60 µM?
no

In the record for COc1ccc2c(=O)c(Cc3c(OC(C)=O)ccc4c(C)cc(=O)oc34)c(N(C)C)oc2c1 , is CC50 at 96 h less than 60 µM?
yes

In the record for CCC(=O)Oc1ccc2c(C)cc(=O)oc2c1Cc1c(-c2ccccc2)[nH]c2ccccc12 , is CC50 at 96 h less than 60 µM?
yes

====

For each record, write down the corresponding CC50 at 96 h.
assay: Cytotoxicity against human MT4 cells after 96 hrs by MTT method; assay type: cell-based

Some compounds with known CC50 at 96 h results, for comparison:
O=c1ccc2ccc(O)c(CN3CCc4ccccc4C3)c2o1: > 100 µM
O=c1ccc2ccc(O)c(CN3CCN(Cc4ccc5c(c4)OCO5)CC3)c2o1: 13 µM
CCC(=O)Oc1ccc2ccc(=O)oc2c1Cc1c[nH]c2ccccc12: 65 µM
Cc1cc(=O)oc2c(CN3CCc4ccccc4C3)c(OC(=O)c3ccccc3)ccc12: > 100 µM
Cc1cc(=O)oc2c(CN3CCOCC3)c(OC(=O)c3ccccc3)ccc12: > 100 µM
Cc1cc(=O)oc2c(CN3CCc4ccccc4C3)c(O)ccc12: > 100 µM
CN1CCN(Cc2c(O)ccc3ccc(=O)oc23)CC1: > 100 µM
Cc1cc(=O)oc2c(CN3CCN(C/C=C/c4ccccc4)CC3)c(OC(=O)c3ccccc3)ccc12: 45 µM
COCCN(CCOC)c1oc2cc(OC)ccc2c(=O)c1Cc1c(OC(C)=O)ccc2ccc(=O)oc12: > 100 µM

Now consider a different compound.
Look up CC50 at 96 h: CCC(=O)Oc1ccc2ccc(=O)oc2c1Cc1c(-c2ccccc2)[nH]c2ccccc12
> 100 µM

====

For each record, write down the corresponding CC50 at 96 h.
assay: Cytotoxicity against human MT4 cells after 96 hrs by MTT method; type: cell-based

Give me CC50 at 96 h for each of these molecules, listed below.
1. O=c1ccc2ccc(O)c(CN3CCOCC3)c2o1
2. CC(=O)Oc1ccc2c(C)cc(=O)oc2c1Cc1c(-c2ccccc2)[nH]c2ccccc12
3. CN(CC(=O)O)Cc1c(O)ccc2ccc(=O)oc12
4. COc1ccc2c(=O)c(Cc3c(O)ccc4c(C)cc(=O)oc34)c(N3CCCC3)oc2c1
5. O=C(Oc1ccc2ccc(=O)oc2c1CN1CCc2ccccc2C1)c1ccccc1

> 100 µM
> 100 µM
> 100 µM
> 100 µM
> 100 µM
